Test system: OVCAR-5 ovarian
Run description: NCI tumour cell line growth inhibition, 48 h; in the data active = GI50 below about 0.43 µM; inactive = the rest
*1 amine or outer side, *2 acyl side, *3 side chain or, on linkers, in order; H or OH if unused. Where a SMILES comes first, the peptide text is derived from it. Bridges are numbered along the chain shown (N, C = ends). [ ]: non-standard residue; d: D form. Adda = CO[C@@H](Cc1ccccc1)[C@@H](C)/C=C(C)/C=C/[C@H](N[*:1])[C@H](C)C(=O)[*:2]; dAsp(3S-Me) = C[C@H](C(=O)[*:3])[C@@H](N[*:1])C(=O)[*:2]; d(γGlu) = O=C(O)[C@@H](CCC(=O)[*:2])N[*:1]; NMeDha = C=C(NC)C(=O)O
Give your call using only these classes: active, inactive

// known answers, use as guide
INSERT INTO assay_data (compound, study_target, discrete_label) VALUES
  ('COc1cc2ncn(-c3cc(O[C@H](C)c4ccccc4Cl)c(C(N)=O)s3)c2cc1OC', 'OVCAR-5 ovarian', 'active'),
  ('O=C(Nc1cccc(-n2cc(-c3ccncc3)c(-c3ccc(Cl)c(O)c3)n2)c1)Nc1ccc(Cl)c(C(F)(F)F)c1', 'OVCAR-5 ovarian', 'inactive'),
  ('CCc1ccc(CNCC(O)c2ccccc2)cc1 (centres undefined)', 'OVCAR-5 ovarian', 'inactive'),
  ('O=C1Nc2cc(Cl)ccc2/C1=C\c1c(-c2ccc(F)cc2)nc2ccccn12', 'OVCAR-5 ovarian', 'inactive'),
  ('FC(F)(F)c1nnn[n-]1.[Au+].c1ccc([PH+](c2ccccc2)c2ccccc2)cc1', 'OVCAR-5 ovarian', 'inactive'),
  ('CCOC(=O)N1C/C(=C/c2ccc(F)cc2)C(=O)/C(=C/c2ccc(F)cc2)C1', 'OVCAR-5 ovarian', 'inactive'),
  ('COc1ccc(C(=O)c2cc(OC)c3c(c2)OCO3)cc1O', 'OVCAR-5 ovarian', 'inactive'),
  ('Nc1nc(/C=C\c2ccc([N+](=O)[O-])cc2)nc(N2CCN(c3ccccc3)CC2)n1', 'OVCAR-5 ovarian', 'inactive');

Read the next record carefully.
QUERY: Which result was noted for this compound in the test: C=C1C(=O)N[C@H](C)C(=O)N[C@@H](CC(C)C)C(=O)N[C@@H](C(=O)O)[C@H](C)C(=O)N[C@@H](CCCN=C(N)N)C(=O)N[C@@H](/C=C/C(C)=C/[C@H](C)[C@H](Cc2ccccc2)OC)[C@H](C)C(=O)N[C@@H](C(=O)O)CCC(=O)N1C (R[Adda][d(γGlu)][NMeDha][dA]L[dAsp(3S-Me)]-OH; lactam N-7)
RESULT: inactive
